Assay: chemical genetic growth profiling, strain panel (AID 1159580);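 note: tested at 20 µM; growth read once vehicle control cultures reached saturation at 30 °C; 1 = growth at the plate median or of vehicle wells; lower values mean less growth of the strain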
Conditions: S. cerevisiae deletion strains, growth OD, locus YIR030C, strain dcg1, active compounds read low
Out of some 5,500 compounds screened, about 2,000 (36%) were called active. Roughly 18% stayed inconclusive and do not appear here. Some of the results follow.
Reported normalized growth values follow for various compounds
Answer with a bare number; do not write a unit.

Please review the following examples before continuing.
>>> observed_measurement("CCCSP(=O)(OCC)SCCC")
0.976
>>> observed_measurement("CCN(CC)CCOC(=O)C(Cc1cccc2ccccc12)CC1CCCO1 (configuration not stated)")
1.01
>>> observed_measurement("Cc1cccc(CN2CCN(C(c3ccccc3)c3ccc(Cl)cc3)CC2)c1 (configuration not stated)")
0.979
>>> observed_measurement("NC(=O)c1cnccn1")
1
>>> observed_measurement("CCn1cc(C(=O)O)c(=O)c2cnc(N3CCCC3)nc21")
0.987
>>> observed_measurement("CCn1cc(C(=O)O)c(=O)c2cc3c(cc21)OCO3")
0.999

## Task Please look up its normalized growth: CCn1cc(C(=O)O)c(=O)c2cnc(N3CCNCC3)nc21
## Result 0.986

## Task Try this compound next: C#C[C@]1(O)CCC2C3CCc4cc(O)ccc4C3CC[C@@]21C (some centres not stated)
## Result 0.999

## Task Try this compound next: CCCCC(CC)CN=C(N)NC(N)=NCCCCCCN=C(N)NC(N)=NCC(CC)CCCC (configuration not stated)
## Result 0.0594

## Task Try this compound next: c1cc2c(cc1[C@H]1OC[C@H]3[C@@H]1CO[C@H]3c1ccc3c(c1)OCO3)OCO2
## Result 0.901

## Task Try this compound next: Cc1ccc(C(C)C)cc2c(C)ccc1-2
## Result 1.02

## Task Try this compound next: S=c1[nH]c2ccccc2s1
## Result 1.01

---

Test: chemical genetic growth profiling, strain panel (AID 1159580)
Settings: S. cerevisiae deletion strains, growth OD, locus YLR384C, strain iki3, active compounds read low
The campaign covered roughly 5,500 compounds. About 2,000 (36%) were called active. Not shown: some 18% with an inconclusive outcome. Some of the results follow.
Reported normalized growth values follow for various compounds
Answer with a bare number; do not write a unit.

>>> observed_measurement("O=C1OCCN1/N=C\\c1ccc([N+](=O)[O-])o1")
1
>>> observed_measurement("O=C(NC(Cc1cc(=O)[nH]c2ccccc12)C(=O)O)c1ccc(Cl)cc1 (stereo not given)")
0.998
>>> observed_measurement("CC1=C(/C=C/C(C)=C/C=C/C(C)=C/CO)C(C)(C)CCC1")
1.01

## Task Please look up its normalized growth: COc1ccc(/C=C/C(=O)c2cc(O)ccc2O)cc1
## Result 0.605

## Task Try this compound next: O=C(O)CNCP(=O)(O)O
## Result 0.993

## Task Try this compound next: Nc1c(Br)cc(Br)cc1CNC1CCC(O)CC1 (stereo not given)
## Result 1.01

## Task Try this compound next: O=C1CN(/N=C\c2ccc([N+](=O)[O-])o2)C(=O)N1
## Result 0.986

## Task Try this compound next: COc1ccc(/C=C/C(=O)c2ccc(O)cc2O)cc1
## Result 0.671

## Task Try this compound next: CCCNC(C)C(=O)Nc1ccccc1C (stereo not given)
## Result 1.01

## Task Try this compound next: CC1=C(/C=C/C(C)=C/C=C/C(C)=C\C(=O)O)C(C)(C)CCC1
## Result 0.973

## Task Try this compound next: COS(C)(=O)=O
## Result 0.982

## Task Try this compound next: Cc1ccc(C(C)C)cc2c(C)ccc1-2
## Result 0.997

## Task Try this compound next: NC(=O)c1cnccn1
## Result 0.977

## Task Try this compound next: CC(=O)O[C@H]1C[C@@H](OC(C)=O)C(C)(C)C2C[C@@H](OC(C)=O)[C@]3(C)C(CC[C@@]4(C)[C@H](c5ccoc5)C(=O)[C@H]5O[C@]543)[C@]21C (stereo not given in full)
## Result 0.995

---

Assay: chemical genetic growth profiling, strain panel (AID 1159580)
Details: S. cerevisiae deletion strains, growth OD, locus YPR119W, strain clb2
Among all 5,500 compounds or so, about 2,000 (36%) were called active. Roughly 18% stayed inconclusive and do not appear here. Rule as the data show it: active = normalized growth mostly below about 0.91 (no sharp cut-off); inconclusive = no clear call, values can overlap the other calls; inactive = mostly above about 0.92. Some of the results follow.
The categories you may choose from are label 1 (active), label 0 (inactive)

Below are worked cases with known answers.
>>> assigned_class("C#C[C@]1(O)CCC2C3CCc4cc(O)ccc4C3CC[C@@]21C (stereo not given in full)")
"label 0"
>>> assigned_class("COc1ccc(C[C@H](N)C(=O)N[C@@H]2[C@@H](CO)OC(n3cnc4c(N(C)C)ncnc43)[C@@H]2O)cc1 (stereo not given in full)")
"label 0"
>>> assigned_class("O=C(O)P(=O)(O)O")
"label 0"
>>> assigned_class("CC(C)C1=CC2=CCC3[C@](C)(CCC[C@]3(C)C(=O)O)C2CC1 (stereo not given in full)")
"label 0"
>>> assigned_class("CCOP(=S)(OCC)Oc1ccc2c(C)c(Cl)c(=O)oc2c1")
"label 0"

## Task State the result this test recorded for COc1cc(/C=C/C(=O)O)ccc1O .
## Result label 0

## Task Try this compound next: O=C(O)c1cc(=O)c2c(OCC(O)COc3cccc4oc(C(=O)O)cc(=O)c34)cccc2o1
## Result label 0

## Task Try this compound next: CCn1cc(C(=O)O)c(=O)c2cc3c(cc21)OCO3
## Result label 0

## Task Try this compound next: C[C@H](COc1ccccc1)N[C@H](C)[C@H](O)c1ccc(O)cc1
## Result label 0

## Task Try this compound next: NC(=O)c1cc[n+](CC2=C(C(=O)O)N3C(=O)C(NC(=O)C(c4ccccc4)S(=O)(=O)[O-])C3SC2)cc1 (stereo not given)
## Result label 0

## Task Try this compound next: CCn1cc(C(=O)O)c(=O)c2cnc(N3CCCC3)nc21
## Result label 0

## Task Try this compound next: Nc1nc2ncc(CNc3ccc(C(=O)N[C@@H](CCC(=O)O)C(=O)O)cc3)nc2c(=O)[nH]1
## Result label 0

## Task Try this compound next: COc1ccc(/C=C/C(=O)O)cc1OC
## Result label 0

## Task Try this compound next: O=C(O)c1cc(=O)c(O)c2c(O)c(O)ccc2c1
## Result label 0

## Task Try this compound next: CCCN(CCC)C(=O)C(CCC(=O)O)NC(=O)c1ccccc1 (stereo not given)
## Result label 0

## Task Try this compound next: Nc1nc(N)c2nc(CNc3ccc(C(=O)NC(CCC(=O)O)C(=O)O)cc3)cnc2n1 (stereo not given)
## Result label 0

---

Experiment: chemical genetic growth profiling, strain panel (AID 1159580);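 note: tested at 20 µM; growth read once vehicle control cultures reached saturation at 30 °C; 1 = growth at the plate median or of vehicle wells; lower values mean less growth of the strain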
Conditions: S. cerevisiae deletion strains, growth OD, locus YMR307W, strain GAS1
Screen size: about 5,500 compounds; about 2,000 (36%) were called active. About 18% were inconclusive and are not listed. Cut-off read from the data, not from the text of the source: active = normalized growth mostly below about 0.91 (no sharp cut-off); inconclusive = no clear call, values can overlap the other calls; inactive = mostly above about 0.92. The list shows a part of the results.
The categories you may choose from are true for active, false for inactive

Below are worked cases with known answers.
>>> assigned_class("Cc1ccc(C(C)C)cc2c(C)ccc1-2")
"false"
>>> assigned_class("S=c1[nH]c2ccccc2s1")
"false"

## Task State the result this test recorded for COC(=O)c1ccc(S(=O)(=O)NCc2ccccc2)n1C .
## Result false

## Task Try this compound next: CCCN1CCc2cc(O)cc3c2[C@H]1Cc1ccc(O)c(O)c1-3
## Result true

## Task Try this compound next: CC12CCC3C(CC=C4CC(O)CCC43C)C1CCC2=O (stereo unspecified)
## Result false

---

Assay: chemical genetic growth profiling, strain panel (AID 1159580);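 note: tested at 20 µM; growth read once vehicle control cultures reached saturation at 30 °C; 1 = growth at the plate median or of vehicle wells; lower values mean less growth of the strain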
Conditions: S. cerevisiae deletion strains, growth OD, locus YJL095W, strain BCK1 (second series), active compounds read low
Hit rate of the full screen: of about 5,500 compounds, about 2,000 (36%) were called active. Roughly 18% stayed inconclusive and do not appear here. The list shows a part of the results.
The label y is reserved for normalized growth strictly under 1; n covers values equal to or above it.

>>> assigned_class("CS(=O)(=O)OCCCCOS(C)(=O)=O")
"n"
>>> assigned_class("O=C(/C=C/c1ccc(O)c(O)c1)O[C@@H]1C[C@](O)(C(=O)O)C[C@@H](O)[C@H]1O")
"y"
>>> assigned_class("CCOC(=O)CCCCCCCCCCCCC1C=CCC1 (configuration not stated)")
"y"

As a next step, examine the compound that follows.
## Task Dear reviewer, please state whether Cc1cccc(CN2CCN(C(c3ccccc3)c3ccc(Cl)cc3)CC2)c1 (configuration not stated) has normalized growth strictly beneath 1.
## Result y

---

Assay: chemical genetic growth profiling, strain panel (AID 1159580);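 note: tested at 20 µM; growth read once vehicle control cultures reached saturation at 30 °C; 1 = growth at the plate median or of vehicle wells; lower values mean less growth of the strain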
Conditions: S. cerevisiae deletion strains, growth OD, locus YDR388W, active compounds read low
Among all 5,500 compounds or so, about 2,000 (36%) were called active. About 18% were inconclusive and are not listed. The list shows a part of the results.
Reported normalized growth values follow for various compounds
Answer with a bare number; do not write a unit.

>>> observed_measurement("OC/C=C/c1ccc(O)c(O)c1")
0.98
>>> observed_measurement("CC1(C)CC2C1CCC1(C)OC1CCC2(C)O (centres undefined)")
1.02
>>> observed_measurement("CCn1cc(C(=O)O)c(=O)c2cc3c(cc21)OCO3")
0.99

## Task Please look up its normalized growth: Nc1nc2c(c(=O)[nH]1)N(C=O)C(CNc1ccc(C(=O)N[C@@H](CCC(=O)O)C(=O)O)cc1)CN2 (some centres undefined)
## Result 0.985

## Task Try this compound next: Nc1nc2ncc(CNc3ccc(C(=O)N[C@@H](CCC(=O)O)C(=O)O)cc3)nc2c(=O)[nH]1
## Result 0.976

## Task Try this compound next: COc1ccc(-c2cc(C(F)F)nn2-c2ccc(S(N)(=O)=O)cc2)cc1F
## Result 1.02

## Task Try this compound next: CCN(CC)CCOC(=O)C(Cc1cccc2ccccc12)CC1CCCO1 (centres undefined)
## Result 1.01

## Task Try this compound next: CCOC(=O)c1ccc(N)cc1
## Result 0.989

This collection of values is drawn from PubChem BioAssay AID1159580.
